Tested on: 885724-159-R-J1-PDC complex spheroid viability;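 note: spheroids exposed to compounds for 7 days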
Test: Anticancer human tumor 885724-159-R-J1-PDC patient-derived pancreatic adenocarcinoma cell line growth inhibition [POLQ]
Conditions: second compound 0.0316 µM; first compound 1 µM; hits give low values
Please go through the items and note down their viability, T/C.

COc1cccc(OCCCN)c1-c1cc(Nc2cnc(C#N)cn2)n[nH]1 + Nc1ccc(C#CCN(C(=O)Cc2ncc(C(F)(F)F)cc2C(F)(F)F)c2ccc(F)cc2)nn1	47.7%
CCCS(=O)(=O)Nc1ccc(F)c(C(=O)c2c[nH]c3ncc(-c4ccc(Cl)cc4)cc23)c1F + Nc1ccc(C#CCN(C(=O)Cc2ncc(C(F)(F)F)cc2C(F)(F)F)c2ccc(F)cc2)nn1	128%
CC1COCCN1c1cc(-c2ccnn2C)c2ccnc(-c3ccn[nH]3)c2n1 (stereo unspecified) + Nc1ccc(C#CCN(C(=O)Cc2ncc(C(F)(F)F)cc2C(F)(F)F)c2ccc(F)cc2)nn1	43.9%
CC1COCCN1c1cc(-c2ccnn2C)c2ccnc(-c3ccn[nH]3)c2n1 (stereo unspecified) + Cc1cccc(N(C)C(=O)C2C(O)CCN2c2nc(C)cc(C(F)(F)F)c2C#N)c1	42.6%
O=C(c1cc(Cc2n[nH]c(=O)c3ccccc23)ccc1F)N1CCN(C(=O)C2CC2)CC1 + Cc1cccc(N(C)C(=O)C2C(O)CCN2c2nc(C)cc(C(F)(F)F)c2C#N)c1	94.2%
CC1COCCN1c1cc(C2(S(C)(=N)=O)CC2)nc(-c2ccnc3[nH]ccc23)n1 (stereo unspecified) + Cc1cccc(N(C)C(=O)C2C(O)CCN2c2nc(C)cc(C(F)(F)F)c2C#N)c1	72%
C=CCn1c(=O)c2cnc(Nc3ccc(N4CCN(C)CC4)cc3)nc2n1-c1cccc(C(C)(C)O)n1 + Cc1cccc(N(C)C(=O)C2C(O)CCN2c2nc(C)cc(C(F)(F)F)c2C#N)c1	51.1%
CC1COCCN1c1cc(-c2ccnn2C)c2ccnc(-c3ccn[nH]3)c2n1 (stereo unspecified) + COC1C(OC(N)=O)C(O)C(Oc2ccc3c(O)c(NC(=O)c4ccc(O)c(CC=C(C)C)c4)c(=O)oc3c2C)OC1(C)C	42.1%

For each listed entry, give its viability, T/C.
1. CCc1c2c(nc3ccc(O)cc13)-c1cc3c(c(=O)n1C2)COC(=O)[C@]3(O)CC + COC1C(OC(N)=O)C(O)C(Oc2ccc3c(O)c(NC(=O)c4ccc(O)c(CC=C(C)C)c4)c(=O)oc3c2C)OC1(C)C
2. CCCS(=O)(=O)Nc1ccc(F)c(C(=O)c2c[nH]c3ncc(-c4ccc(Cl)cc4)cc23)c1F + COC1C(OC(N)=O)C(O)C(Oc2ccc3c(O)c(NC(=O)c4ccc(O)c(CC=C(C)C)c4)c(=O)oc3c2C)OC1(C)C

Reply:
1: 5.01%; 2: 148%

// recorded viability, T/C for O=C(Nc1ccc(O)c(NS(=O)(=O)c2ccc(F)cc2)c1)c1ccc(-c2ccccc2)cc1 + Cc1cccc(N(C)C(=O)C2C(O)CCN2c2nc(C)cc(C(F)(F)F)c2C#N)c1 : 102%
